# Test system: SNB-75 CNS
# assayRemarks: NCI tumour cell line growth inhibition, 48 h
propertyMeasured: TGI

Here are 5 compounds together with their reported answers.
compound	TGI
CN(C)CCC(CCN(C)C)=NO	> 100 µM
Cc1cc(=O)oc2c(CNC(CO)C(=O)O)c(O)ccc12 (stereo unspecified)	> 100 µM
Cc1ccc(NC(=O)CC/C(CC(=O)C(C)(C)C)=N\NC(=O)C[n+]2ccccc2)cc1C	> 100 µM
CC1(CO)COS(=O)OC1 (stereo unspecified)	> 100 µM
O=C(Cc1nc2ccccc2o1)C(=O)Nc1cccc(Cl)c1	> 100 µM

As a next step, examine the compound that follows.
query: Recall the recorded TGI for COc1c(/C=C/C=O)cc2c(c1OC)OCO2 with SNB-75 CNS and state it.
result: > 100 µM
